# study_system: Rap guanine nucleotide exchange factor 3 (Homo sapiens)
# test_details: Counterscreen qHTS for antagonist of cAMP-regulated guanine nucleotide exchange factor 3 (EPAC1) (AID 1645888);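 also: fluorescence loss as bound BODIPY-GDP is released from Rap1B; % of control where 0% means no effect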
# condition_label: Rap1B-BODIPY-GDP nucleotide exchange, fluorescence; series mostly up to 154 µM
Inconclusive results are not listed. Activity calls are given as the source filed them. Calls follow the shape of the dose curve; as a rule, active = well fitted inhibition curve with a large enough effect; inconclusive = small, poorly fitted or top-dose-only effect; inactive = no such curve, though single readings can be large or run the other way.
outcome_measure: activity change, negative = inhibition

[[record]]
compound = "Cc1ccc(C(=O)OCC(=O)Nc2sccc2C(N)=O)cc1NC(=O)c1ccco1"
endpoint_result = "inactive"

[[record]]
compound = "COc1ccc(C2=CC(=O)C[C@H](COCc3ccccc3)N(C(=O)OC(C)(C)C)O2)cc1"
endpoint_result = "inactive"

[[record]]
compound = "CC1CCCN(CC(=O)Nc2cc(Cl)ccc2Oc2ccccc2)C1 (configuration not stated)"
endpoint_result = "inactive"

[[record]]
compound = "COc1ccc(OC)c(NC(=O)Cc2c(C(=O)O)n(C)c3ccc(C)cc23)c1"
endpoint_result = "inactive"

[[record]]
compound = "COc1ccccc1-n1c(-c2ccccc2)c[n+]2c1CCc1ccccc1-2"
endpoint_result = "inactive"

[[record]]
compound = "Cc1ccc(NC(=O)COC(=O)Cn2c(C)csc2=O)c([N+](=O)[O-])c1"
endpoint_result = "inactive"

[[record]]
compound = "Cc1nn(CCc2nc(-c3ccco3)cs2)c2[nH]c(=O)cc(C(F)(F)F)c12"
endpoint_result = "inactive"

[[record]]
compound = "NS(=O)(=O)c1ccc(-c2cccc(/C=C3\\SC(=O)NC3=O)c2)cc1"
endpoint_result = "inactive"

[[record]]
compound = "CC(=O)c1cccc(OC(=O)C2=CC=CN3CCS(=O)(=O)N=C23)c1"
endpoint_result = "inactive"

[[record]]
compound = "C=CCSc1nc2ccccc2c(=O)n1C1CCOC(C)(C)C1 (configuration not stated)"
endpoint_result = "inactive"


I have 6 compounds here; please give me activity change, negative = inhibition for each one.
1. COc1ccc(NC(=O)C2=NN(c3ccccc3)C(=O)CC2)cn1
2. COc1cccc(/C=C2\SC(=S)N(NS(=O)(=O)c3ccccc3)C2=O)c1OC
3. C/C(=C\c1ccco1)CN1CCN(Cc2ccc(C)o2)C(CCO)C1 (configuration not stated)
4. Cc1cccc(Cc2cnc(N3C(=N)SC(c4ccccc4)C3=O)s2)c1 (configuration not stated)
5. COc1cccc(CNC(=O)CCCn2nc(C)c3c(C)n(-c4ccc(C)cc4)nc3c2=O)c1OC
6. CC(CCc1ccccc1)NC(=O)C1CCN(C(=O)c2sccc2-n2cccc2)CC1 (configuration not stated)

inactive
inactive
inactive
inactive
inactive
inactive

Hi! Can you tell me activity change, negative = inhibition for each of these compounds?
1. CC(=O)C[C@H]1SC[C@@H](C(C)C)N1S(=O)(=O)c1ccc(C)cc1
2. COc1cnc(-c2ccccn2)nc1Oc1cccc(Cl)c1
3. CC1CC(C)CN(C(=O)COC(=O)CNC(=O)C23CC4CC(CC(C4)C2)C3)C1 (configuration not stated)
4. CC(C)N(Cc1cn(C)nc1-c1cccc(Cl)c1)Cc1nccn1C
5. CC1(C(=O)O)CCC2(C)CCC3(C)C(=CC(=O)C4C5(C)CCC(=O)C(C)(C)C5CCC43C)C2C1 (configuration not stated)
6. O=C1S/C(=C\c2ccc(O)c([N+](=O)[O-])c2)C(=O)N1c1ccccc1Cl

["inactive", "inactive", "inactive", "-5.68% [at 30.8 µM] (inactive)", "inactive", "inactive"]

For every listed record, write down its activity change, negative = inhibition.
1. O=C(c1ccc2nc(N3CCOCC3)sc2c1)N1CCC(Cc2ccccc2)CC1
2. Cc1ccc(OCCC(=O)OCC(=O)NNC(=O)c2ccccc2)cc1

1: inactive; 2: -6.38% [at 30.8 µM] (inactive)

I need activity change, negative = inhibition for every entry listed below, if you could help.
1. COc1ccc2oc(C)c(C(=O)c3ccc(C)cc3)c2c1
2. COc1ccc(CCNC(=O)CCCCCn2c(SCC(N)=O)nc3cc4c(cc3c2=O)OCO4)cc1OC
3. Cc1nnc(N/N=C\c2ccc(-c3ccccc3[N+](=O)[O-])o2)n1N
4. Cc1cc2nc3c(=O)n(CCc4ccccc4)c(=O)[nH]c3nc2cc1N

-20.6% [at 30.8 µM] (inactive)
inactive
7.63% [at 30.8 µM] (inactive)
-6.16% [at 30.8 µM] (inactive)

* * *

# study_system: Cytochrome P450 1A2 (Homo sapiens) (UniProt P05177)
# Sequence (P05177 whole entry, looked up): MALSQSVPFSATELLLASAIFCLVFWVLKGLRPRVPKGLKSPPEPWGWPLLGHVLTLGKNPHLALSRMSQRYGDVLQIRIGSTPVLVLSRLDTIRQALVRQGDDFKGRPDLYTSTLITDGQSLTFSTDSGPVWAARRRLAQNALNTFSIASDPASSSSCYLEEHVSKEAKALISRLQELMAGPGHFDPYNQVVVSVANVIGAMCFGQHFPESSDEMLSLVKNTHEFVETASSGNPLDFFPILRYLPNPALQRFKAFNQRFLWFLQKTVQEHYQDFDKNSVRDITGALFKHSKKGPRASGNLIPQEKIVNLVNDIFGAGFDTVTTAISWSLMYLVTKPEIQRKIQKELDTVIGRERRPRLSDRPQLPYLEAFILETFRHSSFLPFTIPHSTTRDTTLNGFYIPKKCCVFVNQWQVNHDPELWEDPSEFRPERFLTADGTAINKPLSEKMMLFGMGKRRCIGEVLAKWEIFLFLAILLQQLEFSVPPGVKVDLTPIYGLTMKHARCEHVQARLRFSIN
# test_details: p450-cyp1a2 (AID 410); also: potency is read from the fitted curve at half-maximal effect
# condition_label: recombinant CYP1A2, luciferin-ME demethylation, luminescence; series mostly up to 25.6 µM
Records with an inconclusive call do not appear. Calls of active or inactive are those of the source. Calls come from the whole dose curve.
Return exactly one item of Y (active), N (inactive)

Hi, do you know how "CCN(CC)[C@@H](C)CN1c2ccccc2Sc2ccccc21" came out in this test?
Y

* * *

# study_system: Rap guanine nucleotide exchange factor 4 (Homo sapiens)
# test_details: Confirmatory qHTS for agonist of cAMP-regulated guanine nucleotide exchange factor 4 (EPAC2) (AID 1645884);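 also: nucleotide exchange releases bodipy-GDP from Rap1 and this lowers its fluorescence; % is scaled to controls: 0 for no effect and ±100 for the full control effect; nearly all actives have a fitted effect of over 65% in size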
# condition_label: EPAC2 GEF activity, Rap1B-BODIPY-GDP fluorescence; series mostly up to 154 µM
Records with an inconclusive call do not appear. Active and inactive are the calls of the source. The call rests on the fitted dose curve; in most records, active means well fitted activation curve with a large enough effect; inconclusive means small, poorly fitted or top-dose-only effect; inactive means no such curve, though single readings can be large or run the other way.
outcome_measure: activation

[[record]]
compound = "C=CC(=C)CC(NC)c1ccccc1 (stereo not given)"
outcome_measure = "activation"
endpoint_result = "inactive"

[[record]]
compound = "CN(C(=O)COC(=O)/C=C/c1ccc2c(c1)OCO2)c1c(N)n(Cc2ccccc2)c(=O)[nH]c1=O"
outcome_measure = "activation"
endpoint_result = "inactive"

[[record]]
compound = "CCc1nc2c(OCc3ccc(C(=O)OC)cc3)cccn2c1N(C)C(=O)CC(C)C"
outcome_measure = "activation"
endpoint_result = "inactive"


* * *

# study_system: Cytochrome P450 2C9 (Homo sapiens) (UniProt P11712)
# Sequence (P11712 whole entry, looked up): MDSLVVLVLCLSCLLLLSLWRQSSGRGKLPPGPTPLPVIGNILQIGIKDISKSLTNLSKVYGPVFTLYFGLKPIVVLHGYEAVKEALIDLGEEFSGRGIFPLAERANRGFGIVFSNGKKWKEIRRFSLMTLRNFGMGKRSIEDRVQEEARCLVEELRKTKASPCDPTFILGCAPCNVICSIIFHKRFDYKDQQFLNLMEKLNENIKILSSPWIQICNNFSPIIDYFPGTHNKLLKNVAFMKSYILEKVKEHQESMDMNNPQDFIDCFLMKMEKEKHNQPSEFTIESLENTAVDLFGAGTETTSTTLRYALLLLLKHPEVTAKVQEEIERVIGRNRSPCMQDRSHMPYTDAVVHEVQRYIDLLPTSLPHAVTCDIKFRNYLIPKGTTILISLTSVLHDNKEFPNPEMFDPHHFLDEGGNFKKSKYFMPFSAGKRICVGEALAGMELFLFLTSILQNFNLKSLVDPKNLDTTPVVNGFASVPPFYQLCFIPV
# test_details: Cytochrome P450 family 2 subfamily C member 9 (CYP2C9) small molecule antagonists: luciferase biochemical (cell-free) qHTS assay (AID 1645842); also: nearly all actives have a fitted effect of over 55% in size; also: potency is read from the fitted curve at half-maximal effect
# condition_label: P450-Glo CYP2C9 enzyme assay, luciferin luminescence; series mostly up to 57.4 µM
Records with an inconclusive call do not appear. Calls of active or inactive are those of the source. The call rests on the fitted dose curve; in most records, active means well fitted inhibition curve with a large enough effect in the repeat runs; inconclusive means weak or mixed curves; inactive means no such curve, though single readings can be large or run the other way.
outcome_measure: Potency

Solved entries (count: 5):
[[record]]
compound = "COc1ccc(Cl)cc1NC(=O)CN1C(=O)CSc2ccc(S(=O)(=O)N3CCCC3)cc21"
outcome_measure = "Potency"
endpoint_result = "0.756 µM (active)"

[[record]]
compound = "Cc1nc2c3ccccc3nc(NNC(=O)CCC(=O)N3CCN(c4ccc(F)cc4)CC3)n2n1"
outcome_measure = "Potency"
endpoint_result = "3.79 µM (active)"

[[record]]
compound = "COc1ccc(CNC(=O)c2nc(SCc3ccccc3F)ncc2Cl)cc1"
outcome_measure = "Potency"
endpoint_result = "inactive"

[[record]]
compound = "COc1ccc(Cn2c(CCC(=O)Nc3ccc(C)c(C)c3)nc3cccnc32)cc1"
outcome_measure = "Potency"
endpoint_result = "7.56 µM (active)"

[[record]]
compound = "COc1cc(C(c2c(C)[nH][nH]c2=O)c2c(C)[nH][nH]c2=O)ccc1OC(=O)c1cccc(C)c1"
outcome_measure = "Potency"
endpoint_result = "12 µM (active)"


Hi, could you look up Potency for each item in my list?
1. COc1cc(C(c2c(C)[nH][nH]c2=O)c2c(C)[nH][nH]c2=O)ccc1OC(=O)c1ccccc1OC
2. CC(C)c1ccc(-n2ncc3c(=O)n(CC(=O)Nc4cc(F)ccc4Cl)cnc32)cc1

1: 8.49 µM (active); 2: 3.79 µM (active)

Please go through the list and note Potency for each compound.
1. Cc1ccc2ccc(C(Nc3ccccn3)c3ccccc3)c(O)c2n1 (configuration not stated)
2. COc1ccc(CN(C2CCCCC2)[S+](=O)([O-])c2ccc(C)cc2)cc1OC
3. CN(C)S(=O)(=O)n1cc(/C=C(\NC(=O)c2ccccc2)C(=O)NCCCn2ccnc2)c2ccccc21
4. COc1ccc(Cn2c(CCC(=O)Nc3cc(C)cc(C)c3)nc3cccnc32)cc1
5. CC1(C#N)CCN(c2c(C(=O)N3CCN(C(=O)N4CCCC4)CC3)cnc3c(F)cc(F)cc23)CC1
6. CCc1nnc(NC(=O)CSc2nc3c([nH]c4ccccc43)c(=O)n2-c2ccc(OC)cc2)s1
7. COC(=O)Cc1cccc(NC(=O)C2=C(C)NC(Nc3nc4ccccc4o3)=NC2c2ccccc2Cl)c1 (configuration not stated)
8. COc1ccc2c(CNCCc3ccccc3OC)c(C(=O)O)n(Cc3ccc(F)cc3Cl)c2c1

2.68 µM (active)
3.79 µM (active)
0.213 µM (active)
6.74 µM (active)
12 µM (active)
4.25 µM (active)
9.52 µM (active)
12 µM (active)

* * *

# test_details: Primary qHTS for inhibitors of nuclear receptor binding SET domain protein 2 (NSD2) in an RCH-ACV wild type WT cells (2C) (AID 1645877); also: potency is read from the fitted curve at half-maximal effect; nearly all actives have a fitted effect of over 70% in size
# condition_label: RCH-ACV (leukaemia line) NSD2 WT (2C) viability, CellTiter-Glo, 72 h; series mostly up to 44.9 µM
Records with an inconclusive call do not appear. The source made the active and inactive calls. The call rests on the fitted dose curve; in most records, active means well fitted inhibition curve with a large enough effect; inconclusive means small, poorly fitted or top-dose-only effect; inactive means no such curve, though single readings can be large or run the other way.
So I've got a bunch of compounds here, and I need their Potency values.

[[record]]
compound = "COc1ccc(S(=O)(=O)N2CCc3cccc(-c4ccncc4)c32)cc1"
endpoint_result = "0.934 µM (active)"

[[record]]
compound = "C=CC(C)(/C=C/c1ccc(O)cc1)CCC=C(C)C (stereo not given)"
endpoint_result = "18.4 µM (active)"

[[record]]
compound = "c1ccc(-c2cc(CCC3CCNCC3)c3ccccc3n2)cc1"
endpoint_result = "13.2 µM (active)"

[[record]]
compound = "CC[C@H](Nc1ncnc2nc[nH]c12)c1oc2ccccc2c(=O)c1-c1cccc(F)c1"
endpoint_result = "1.48 µM (active)"

[[record]]
compound = "COc1ccc(Oc2cc(NCCC(F)(F)F)c3ncc(-c4ccc(C(=O)NC5CC5)c(C)c4)n3n2)c(F)c1F"
endpoint_result = "0.0148 µM (active)"


# batch size: 5; output Potency per entry
1. COc1ccc(/C=C\c2cc(OC)c(OC)c(OC)c2)cc1O
2. C=CC(=O)Nc1cccc(Oc2nc(Nc3ccc(N4CCN(C)CC4)cc3)nc3ccsc23)c1
3. CCCCCCCOc1ccc(CCC(N)(CO)CO)cc1C(F)(F)F
4. Cc1cc(Nc2ncnc3ccc(NC4=NC(C)(C)CO4)cc23)ccc1Oc1ccn2ncnc2c1
5. Cc1ccc(Sc2ccccc2N2CCNCC2)c(C)c1

0.0093 µM (active)
3.32 µM (active)
10.5 µM (active)
16.6 µM (active)
7.42 µM (active)
